These entries and their values trace back to PubChem BioAssay AID1963442.

tested on: MPNST complex spheroid with HUVEC/MSC, growth, % test/control; experiment: Anticancer human tumor MPNST cell line growth inhibition [Asc]; settings: second compound 0.01 µM; first compound 0.0316 µM; active compounds read low;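 also: compounds left on spheroids for seven days before reading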
reported-property: viability, T/C (%)
Answers are plain numbers, in %.

compound	recorded-value
Cn1ncnc1[C@H]1c2n[nH]c(=O)c3cc(F)cc(c23)N[C@@H]1c1ccc(F)cc1 + CNC(C)C(=O)NC1CN(S(=O)(=O)c2cccc(S(=O)(=O)N3CCC4CCC(C(=O)NC(c5ccccc5)c5ccccc5)N4C(=O)C(NC(=O)C(C)NC)C3)c2)CCC2CCC(C(=O)NC(c3ccccc3)c3ccccc3)N2C1=O	32.5
C=CC(=O)N1CCN(c2nc(=O)n(-c3c(C)ccnc3C(C)C)c3nc(-c4c(O)cccc4F)c(F)cc23)C(C)C1 (stereo not drawn) + CNC(C)C(=O)NC1CN(S(=O)(=O)c2cccc(S(=O)(=O)N3CCC4CCC(C(=O)NC(c5ccccc5)c5ccccc5)N4C(=O)C(NC(=O)C(C)NC)C3)c2)CCC2CCC(C(=O)NC(c3ccccc3)c3ccccc3)N2C1=O	81.2

Now for another entry.
Q: Any idea what its viability, T/C is? The compound is COc1c(OCCCN2CCOCC2)ccc2c3n(c(=NC(=O)c4cnc(N)nc4)nc12)CCN3 + CNC(C)C(=O)NC1CN(S(=O)(=O)c2cccc(S(=O)(=O)N3CCC4CCC(C(=O)NC(c5ccccc5)c5ccccc5)N4C(=O)C(NC(=O)C(C)NC)C3)c2)CCC2CCC(C(=O)NC(c3ccccc3)c3ccccc3)N2C1=O
Result: 49.9
